# Test system: SF-268
# PROCEDURE DETAILS: NCI tumour cell line growth inhibition, 48 h
The source made the active and inactive calls. No stated cut-off is given here; in the data, active = GI50 up to about 1.1 µM and inactive = higher.
RECORDED ENDPOINT: GI50

Take a look at these entries with their results.
CC(=O)N1CCN(C=S)CC1    > 100 µM (inactive)
O=[N+]([O-])c1cnn(C2=CNc3ccccc3N=C2)c1    > 100 µM (inactive)
CCCCc1c2c(c(C)c3c1C(=O)OC3)Oc1ccccc1O2    1.64 µM (inactive)

Form field GI50, entry C[n+]1c2ccccc2c(NC(CS)C(=O)O)c2ccccc21 (stereo not given) : 19.8 µM (inactive)

GI50 reported for this compound CC(=O)O[C@H]1CCC2[C@@H]3CCC4Cc5nc6c(nc5C[C@]4(C)C3CC[C@@]21C)CC1CC[C@@H]2C(CC[C@@]3(C)C2CC[C@@H]3C(C)CCCC(C)C)[C@@]1(C)C6 (stereo not given in full) : > 100 µM (inactive)
